- Measured Target: T1, B-cat-Halo (UniProt P35222 1-781)
- T1 sequence (looked up): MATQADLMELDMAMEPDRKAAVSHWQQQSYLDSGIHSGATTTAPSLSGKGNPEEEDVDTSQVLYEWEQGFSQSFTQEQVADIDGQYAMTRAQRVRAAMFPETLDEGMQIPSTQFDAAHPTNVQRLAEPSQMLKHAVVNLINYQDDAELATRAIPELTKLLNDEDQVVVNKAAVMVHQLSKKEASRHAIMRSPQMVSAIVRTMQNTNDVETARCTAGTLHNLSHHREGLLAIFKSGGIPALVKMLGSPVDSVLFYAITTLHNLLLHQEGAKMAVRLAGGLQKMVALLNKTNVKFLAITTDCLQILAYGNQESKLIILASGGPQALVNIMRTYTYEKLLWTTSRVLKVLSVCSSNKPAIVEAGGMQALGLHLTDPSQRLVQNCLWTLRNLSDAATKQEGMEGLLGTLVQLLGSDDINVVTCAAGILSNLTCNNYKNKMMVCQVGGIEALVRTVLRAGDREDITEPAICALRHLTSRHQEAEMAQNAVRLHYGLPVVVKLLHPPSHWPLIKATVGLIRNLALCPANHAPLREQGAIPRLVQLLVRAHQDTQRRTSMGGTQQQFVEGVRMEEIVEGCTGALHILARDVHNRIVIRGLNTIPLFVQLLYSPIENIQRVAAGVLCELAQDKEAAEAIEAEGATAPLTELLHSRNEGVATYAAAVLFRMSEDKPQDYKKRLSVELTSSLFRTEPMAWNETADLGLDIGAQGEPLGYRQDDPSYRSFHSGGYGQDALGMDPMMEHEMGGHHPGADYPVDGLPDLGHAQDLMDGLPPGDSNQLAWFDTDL
- Procedure Details: cell-based or functional assay
Starred links: 1 amine or outer side, 2 acyl side, 3 side chain; linkers in the order of their positions; H or OH if unused. Positions of bridges follow the written chain, without caps; N, C: chain ends. Non-standard residues stand in square brackets, D forms with d. Primed or numbered codes have the meaning given here. PyrS2″ = (S)-3-amino-1-((pent-4-en-1-yloxy)carbonyl)pyrrolidine-3-carboxylic acid (stapling residue), C=CCCCOC(=O)N1CC[C@@](N[*:1])(C(=O)[*:2])C1; B5(24) = 2-amino-2-(pent-4-en-1-yl)hept-6-enoic acid, 2,2-bis(4-pentenyl)glycine (stitching residue), C=CCCCC(CCCC=C)(N[*:1])C(=O)[*:2]; B5(3) = 2,2-bis(4-pentenyl)glycine (stitching residue), C=CCCCC(CCCC=C)(N[*:1])C(=O)[*:2]; Phe(3-CF3) = N[C@@H](Cc1cccc(C(F)(F)F)c1)C(=O)O; Phe(3-OMe) = COc1cccc(C[C@H](N)C(=O)O)c1; Phe(2-Cl) = N[C@@H](Cc1ccccc1Cl)C(=O)O; 2Nal = N[C@@H](Cc1ccc2ccccc2c1)C(=O)O; Bta = N[C@@H](Cc1csc2ccccc12)C(=O)O; Lys(iPr) = CC(C)NCCCC[C@H](N)C(=O)O; αAllylPro = C=CC[C@@]1(C(=O)O)CCCN1; tBuAla = CC(C)(C)C[C@H](N)C(=O)O; Cha = N[C@@H](CC1CCCCC1)C(=O)O
Rule: measured NanoBRET Abs IC50 below 10 µM gets class 1; anything equal to or greater than 10 µM gets class 0.

Past entries and their recorded results:
Binder	Category Label
Ac-[αAllylPro]D[Cha][B5(3)]DDAA[Phe(3-OMe)]S[PyrS2″]F[Bta]Q-NH2 (staple 1-4, 4-11 (inferred)) [I-1124]	class 0
Ac-[αAllylPro]D[2Nal][B5(3)]DDAAFT[PyrS2″][2C1F][Bta]S-NH2 (staple 1-4, 4-11) [I-1115]	class 0

Hello, I'm reviewing records and need to know if NanoBRET Abs IC50 of Ac-[αAllylPro]D[tBuAla][B5(3)]DDAAFL[PyrS2″][Phe(2-Cl)][Bta]Q-NH2 (staple 1-4, 4-11 (inferred); not fully specified (residue 9); printed as Ac-PL3-Asp-Npg-B5-Asp-Asp-Ala-Ala-4F3MeF-Leu-PyrS2-2C1F-BztA-Gln-NH2) [I-1123] is below 10 µM. Could you check?
class 0

# TODO verify NanoBRET Abs IC50 < 10 µM strictly for this binder: Ac-[αAllylPro]D[tBuAla][B5(3)]DDAA[Phe(3-CF3)]L[PyrS2″]F[Bta]Q-NH2 (staple 1-4, 4-11 (inferred)) [I-1128]
class 1

In the record for Ac-[αAllylPro]D[Cha][B5(3)]DDAA[Phe(3-CF3)]S[PyrS2″]F[Bta]Q-NH2 (staple 1-4, 4-11 (inferred)) [I-1125] , is NanoBRET Abs IC50 less than 10 µM?
class 0

Hello, is NanoBRET Abs IC50 of the following binder strictly smaller than 10 µM? Ac-[αAllylPro]D[Cha][B5(3)]DDAA[Phe(3-CF3)]S[PyrS2″][Phe(2-Cl)][Bta]Q-NH2 (staple 1-4, 4-11 (inferred)) [I-1119]
class 0

Answer whether the binder Ac-[αAllylPro]D[Cha][B5(3)]DDAA[Phe(3-OMe)]S[PyrS2″][Phe(2-Cl)][Bta]Q-NH2 (staple 1-4, 4-11 (inferred)) [I-1118] has NanoBRET Abs IC50 strictly less than 10 µM
class 0

Answer whether the binder Ac-[αAllylPro]D[tBuAla][B5(3)]DDAA[Phe(3-OMe)]L[PyrS2″]F[Bta]Q-NH2 (staple 1-4, 4-11 (inferred)) [I-1127] has NanoBRET Abs IC50 strictly less than 10 µM
class 1

Given Ac-[αAllylPro]D[Cha][B5(24)]DDAAFS[PyrS2″][Phe(2-Cl)][Bta][dT]-NH2 (staple 1-4, 4-11) [I-1136] , is recorded NanoBRET Abs IC50 strictly lower than 10 µM?
class 0

Strictly below 10 µM: is that where NanoBRET Abs IC50 of Ac-[αAllylPro]D[tBuAla][B5(24)]DDA[Lys(iPr)]FN[PyrS2″][Phe(2-Cl)][Bta]Q-NH2 (staple 1-4, 4-11) [I-1132] sits?
class 0

For this binder, is NanoBRET Abs IC50 lower than 10 µM? Ac-[αAllylPro]D[tBuAla][B5(24)]DD[Lys(iPr)]AFN[PyrS2″][Phe(2-Cl)][Bta]Q-NH2 (staple 1-4, 4-11) [I-1131]
class 0

Lab note: NanoBRET Abs IC50 threshold 10 µM. Does this binder come in strictly under it? Ac-[αAllylPro]D[Cha][B5(3)]DDAAFS[PyrS2″]F[Bta]Q-NH2 (staple 1-4, 4-11 (inferred); not fully specified (residue 9); printed as Ac-PL3-Asp-Cha-B5-Asp-Asp-Ala-Ala-4F3MeF-Ser-PyrS2-Phe-BztA-Gln-NH2) [I-1126]
class 0

Problem: For the binder Ac-[αAllylPro]D[tBuAla][B5(24)]DDAAFN[PyrS2″][Phe(2-Cl)][Bta][Lys(iPr)]-NH2 (staple 1-4, 4-11) [I-1130] , is NanoBRET Abs IC50 under 10 µM?
class 1

Say whether its NanoBRET Abs IC50 is strictly beneath 10 µM. Entry: Ac-[αAllylPro]D[Cha][B5(3)]DDAAFS[PyrS2″][Phe(2-Cl)][Bta]Q-NH2 (staple 1-4, 4-11 (inferred); not fully specified (residue 9); printed as Ac-PL3-Asp-Cha-B5-Asp-Asp-Ala-Ala-4F3MeF-Ser-PyrS2-2C1F-BztA-Gln-NH2) [I-1120]
class 0

Does the reported NanoBRET Abs IC50 of the following binder sit strictly below 10 µM? Ac-[αAllylPro]D[tBuAla][B5(3)]DDAA[Phe(3-CF3)]L[PyrS2″][Phe(2-Cl)][Bta]Q-NH2 (staple 1-4, 4-11 (inferred)) [I-1122]
class 0

Criterion: NanoBRET Abs IC50 strictly below 10 µM. Is it met by Ac-[αAllylPro]D[tBuAla][B5(3)]DDAA[Phe(3-OMe)]L[PyrS2″][Phe(2-Cl)][Bta]Q-NH2 (staple 1-4, 4-11 (inferred)) [I-1121] ?
class 1
